Test system: T-47D breast
Assay: NCI-60 one-dose screen, 48 h (100 = growth as untreated, 0 = no growth, -100 = all killed)
Conditions: 10 µM unless noted
This is part of a sample that, as a whole, favours compounds with a hit. Of some 83,000 tested, about 20% had one in any assay.
testReadout: growth (%)
Expressed in %, but write only the number.

compound: COC1CCN(Cc2ccc3c(NNC(=O)c4cnccn4)nc4cc(F)ccc4n23)C1 (centres undefined)
uom: %
growth: 24.2

compound: OC1CCN(CCCOc2c3ccccc3nc3c2oc2ccccc23)CC1
uom: %
growth: 1.32

compound: CO/N=C1\CCc2c(sc(NC(=O)c3cccc(C(F)(F)F)c3)c2C(N)=O)C1
uom: %
growth: -18.5

# growth of NS(=O)(=O)c1ccc(Nc2nc(Nc3ccccc3)nc(-n3nc(-c4ccccc4)cc3-c3ccccc3)n2)cc1 = 36.9

response.value for CCOC(=O)c1sc(NCC(=O)Nc2cccc([N+](=O)[O-])c2)c(C(=O)OCC)c1C (field: growth) = -10.9

Reported growth ( CCOc1ccc2nc(NC(=O)c3ccc(C(F)(F)F)cc3)sc2c1 ) = 97.7

So, C[C@@H]1CN(c2ccc3ncc(C#Cc4cncc(C(=O)Nc5ccc(CN6CCN(C)CC6)c(C(F)(F)F)c5)c4)n3n2)C[C@H](C)O1 ? Its growth was 15

====

Test system: OVCAR-4 ovarian
Test: NCI-60 one-dose screen, 48 h
Conditions: 10 µM unless noted
Procedure: Growth inhibition of the OVCAR-4 human tumor cell line is measured as a screen for anti-cancer activity. Cells are grown in 96 well plates and exposed to the test compound for 48 hours. Compounds are tested at a single concentration, which is 10^-5 M for most compounds. The reported endpoint is percent growth (GI% or GIPRCNT), where numbers from 0 - 100% represent growth inhibition, and numbers from -100% - 0 represent cell death. For example, a value of 40 represents 60% growth inhibition. […]
About 83,000 compounds went through this panel and 20% of them were active in at least one assay; those are over-represented in the sample as a whole. Active and inactive are the calls of the source. Rule for the calls: active = growth percent below 10; inactive = the rest.
# valid calls are active, inactive; nothing else

compound: N/C(=N\c1nc2c(Cl)cc(Cl)cc2s1)C(Cl)(Cl)Cl
class: inactive
//
compound: C=C1CC[C@H]2[C@@](C)(CCC3OC(c4ccc(OCc5cn(C6CC(OC(C)=O)C(OC(C)=O)C(COC(C)=O)O6)nn5)cc4)OC[C@]32C)[C@@H]1/C=C/C1=CCOC1=O (some centres undefined)
class: inactive
//
compound: C/C(=C(/c1ccc(Cl)cc1)c1ccc(OCCN)cc1)c1ccc(C)cc1
class: inactive
//
compound: COc1ccc(N/N=C/c2c(-c3ccc(S(C)(=O)=O)cc3)nc3ccccn23)cc1
class: inactive
//
compound: Cc1nc(-c2cc3ccccc3oc2=O)ccc1C(=O)/C=C/c1ccc(Cl)c(Cl)c1
class: inactive

In: Please state the recorded outcome for this compound: C=CCSc1ccc2c(c1)C(N1CCNCC1)=Nc1ccccc1O2
Out: inactive

In: Check the results log: what was the call for C[C@@H]1CN(c2ccc3ncc(C#Cc4cncc(C(=O)Nc5ccc(CN6CCN(C)CC6)c(C(F)(F)F)c5)c4)n3n2)C[C@H](C)O1 ?
Out: active

In: Can you look up the reported call for C#Cc1nc(C2=C(C)C(=O)/C(=N/OC(C)=O)C2)cs1 for me?
Out: inactive

In: Hello, I am checking results. What call was entered for O=C1/C(=C/C2=Cc3ccccc3OC2)SC(=S)N1c1ccc(F)cc1 ?
Out: inactive
